Reported Percentage of inhibition of TNF-α production values for the following compounds.
- Test system: TNF-α
- assay details: Inhibition of TNF-α production by stimulated human peripheral blood leukocytes in vitro
- Assay type: cell-based
- recorded conditions: 10 μM; zymosan-stimulated PBL
measured attribute: Percentage of inhibition of TNF-α production (%)

• CC[C@H]1OC(=O)[C@H](C)[C@@H](O[C@H]2C[C@@](C)(OC)[C@@H](OCCCN(CC)CC)[C@H](C)O2)[C@H](C)[C@@H](O[C@@H]2O[C@H](C)C[C@H](N(C)C)[C@H]2O)[C@](C)(O)C[C@@H](C)CN(C)[C@H](C)[C@H]2OC(=O)O[C@@]21C = 47
• CCC1OC(=O)C(C)C(OC2CC(C)(OC)C(OC(=O)CCN(CC)CC)C(C)O2)C(C)C(OC2OC(C)CC(N(C)C)C2O)C(C)(OC)CC(C)C(=O)NC(C)C(O)C1(C)O (stereo not shown) = 87
• CCC1OC(=O)C(C)C(OC2CC(C)(OC)C(OCCCN3CCN(CCN(CC)CC)CC3)C(C)O2)C(C)C(OC2OC(C)CC(N(C)C)C2O)C(C)(O)CC(C)CN(C)C(C)C2OC(=O)OC12C (stereo not shown) = 43
• CCC(=O)N(C)[C@H]1C[C@@H](C)O[C@@H](O[C@@H]2[C@@H](C)[C@H](O[C@H]3C[C@@](C)(OC)[C@@H](OC(=O)CCN(CC)CC)[C@H](C)O3)[C@@H](C)C(=O)O[C@H](CC)[C@@](C)(O)[C@H](O)[C@@H](C)NC(=O)[C@H](C)C[C@@]2(C)OC)[C@@H]1O = 0
